Entries and their measured Kd follow.
# system-tested: HPV35 E6 phospho-PBM peptide p35E6 (human papillomavirus type 35)
# experimental-details: FP

- binder: "full-length human 14-3-3ε fused to the C terminus of MBP (natural protein) MDDREDLVYQAKLAEQAERYDEMVESMKKVAGMDVELTVEERNLLSVAYKNVIGARRASWRIISSIEQKEENKGGEDKLKMIREYRQMVETELKLICCDILDVLDKHLIPAANTGESKVFYYKMKGDYHRYLAEFATGNDRKEAAENSLVAYKAASDIAMTELPPTHPIRLGLALNFSVFYYEILNSPDRACRLAKAAFDDAIAELDTLSEESYKDSTLIMQLLRDNLTLWTSDMQGDGEEQNKEALQDVEDENQ"
  Kd: "> 300 µM"
- binder: "full-length human 14-3-3σ fused to the C terminus of MBP (natural protein) MERASLIQKAKLAEQAERYEDMAAFMKGAVEKGEELSCEERNLLSVAYKNVVGGQRAAWRVLSSIEQKSNEEGSEEKGPEVREYREKVETELQGVCDTVLGLLDSHLIKEAGDAESRVFYLKMKGDYYRYLAEVATGDDKKRIIDSARSAYQEAMDISKKEMPPTNPIRLGLALNFSVFHYEIANSPEEAISLAKTTFDEAMADLHTLSEDSYKDSTLIMQLLRDNLTLWTADNAGEEGGEAPQEPQS"
  Kd: "> 300 µM"
- binder: "full-length human 14-3-3β fused to the C terminus of MBP (natural protein) MTMDKSELVQKAKLAEQAERYDDMAAAMKAVTEQGHELSNEERNLLSVAYKNVVGARRSSWRVISSIEQKTERNEKKQQMGKEYREKIEAELQDICNDVLELLDKYLIPNATQPESKVFYLKMKGDYFRYLSEVASGDNKQTTVSNSQQAYQEAFEISKKEMQPTHPIRLGLALNFSVFYYEILNSPEKACSLAKTAFDEAIAELDTLNEESYKDSTLIMQLLRDNLTLWTSENQGDEGDAGEGEN"
  Kd: "> 300 µM"
